Catalogue of sequences with associated phosphorylation enrichment
system_tested: Hck (UniProt P08631)
Sequence (P08631 whole entry, looked up): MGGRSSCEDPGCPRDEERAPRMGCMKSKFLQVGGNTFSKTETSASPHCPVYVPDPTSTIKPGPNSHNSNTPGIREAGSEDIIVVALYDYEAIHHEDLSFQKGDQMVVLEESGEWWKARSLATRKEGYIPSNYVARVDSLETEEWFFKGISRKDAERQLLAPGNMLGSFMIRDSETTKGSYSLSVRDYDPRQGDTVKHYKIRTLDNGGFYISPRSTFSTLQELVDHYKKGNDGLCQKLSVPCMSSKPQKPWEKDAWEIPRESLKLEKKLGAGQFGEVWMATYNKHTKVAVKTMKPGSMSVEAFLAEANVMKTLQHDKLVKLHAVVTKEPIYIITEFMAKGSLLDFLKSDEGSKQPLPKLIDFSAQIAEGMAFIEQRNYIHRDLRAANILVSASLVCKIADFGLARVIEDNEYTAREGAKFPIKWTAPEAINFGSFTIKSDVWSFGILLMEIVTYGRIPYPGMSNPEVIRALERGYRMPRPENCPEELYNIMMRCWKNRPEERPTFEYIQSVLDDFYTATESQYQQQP
assay_protocol: phosphorylation enrichment, bacterial display (enrichment ratio); higher = better substrate or ligand; peptides without Tyr show the background;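 further: 11-residue human phosphosite peptides and single-mutation variants displayed on the E. coli surface, counted by deep sequencing, each peptide's frequency after selection divided by its frequency in the unselected input library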;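 further: frequency after pTyr selection over input frequency; kinase dosed for 20-30% of maximal phosphorylation in three min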
recorded_endpoint: phosphorylation enrichment

>>> print(df.to_string())
                      seq_string         system_tested  result
0       RGYRQDAYDGK [HLA-A_Y140]  Hck (UniProt P08631)   0.591
1    DLDTDYGSGYP [RNASEH2A_Y206]  Hck (UniProt P08631)   0.589
2  NLMPAYFKCIQ [CYP21A2_Y190_YF]  Hck (UniProt P08631)    0.61
3       DKMEAYNIDET [TEKT4_Y210]  Hck (UniProt P08631)   0.583

====

system_tested: Fes (UniProt P07332)
Sequence (P07332 whole entry, looked up): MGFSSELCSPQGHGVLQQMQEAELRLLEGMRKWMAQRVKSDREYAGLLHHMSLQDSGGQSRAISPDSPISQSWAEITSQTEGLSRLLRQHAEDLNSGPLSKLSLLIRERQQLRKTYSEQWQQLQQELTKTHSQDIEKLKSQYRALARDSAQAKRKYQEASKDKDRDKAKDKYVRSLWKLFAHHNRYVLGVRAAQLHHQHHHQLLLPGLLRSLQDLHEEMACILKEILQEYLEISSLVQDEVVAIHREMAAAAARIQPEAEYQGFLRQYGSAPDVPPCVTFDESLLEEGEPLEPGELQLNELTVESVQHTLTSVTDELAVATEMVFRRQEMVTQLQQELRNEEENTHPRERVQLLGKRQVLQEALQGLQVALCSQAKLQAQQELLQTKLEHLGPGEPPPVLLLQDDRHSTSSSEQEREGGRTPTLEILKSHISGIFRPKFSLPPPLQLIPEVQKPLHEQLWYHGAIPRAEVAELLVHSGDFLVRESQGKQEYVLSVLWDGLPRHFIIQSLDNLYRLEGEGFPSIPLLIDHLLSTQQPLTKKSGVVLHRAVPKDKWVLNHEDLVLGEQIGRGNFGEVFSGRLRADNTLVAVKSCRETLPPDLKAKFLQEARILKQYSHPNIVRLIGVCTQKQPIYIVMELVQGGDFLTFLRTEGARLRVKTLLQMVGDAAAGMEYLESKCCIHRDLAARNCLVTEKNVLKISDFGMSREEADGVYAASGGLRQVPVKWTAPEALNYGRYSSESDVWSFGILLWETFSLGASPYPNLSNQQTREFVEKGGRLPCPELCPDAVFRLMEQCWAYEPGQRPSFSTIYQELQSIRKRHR
assay_protocol: phosphorylation enrichment, bacterial display (enrichment ratio); higher = better substrate or ligand; peptides without Tyr show the background
Quick rule for you: phosphorylation enrichment at 1 or higher means True, lower means False.

                             seq_string  class_assignment
 0     NTFEKYWLFFQ [GATM_Y103_P105L_YF]              True
 1      SLDLSYFHTSS [EMD_Y181_P183H_YF]             False
 2    LLVVVYKFRCF [PSEN1_Y154_L153V_YF]              True
 3              PPLMLYNPTTY [EGFR_Y270]              True
 4  FEKFLYFLPAS [DYNC2H1_Y346_H341Y_YF]              True
 5       IIRYNYLLDVL [FGFR4_Y237_S232I]              True
 6     CDTKLYTSVPN [DNTTIP2_Y427_A430V]              True
 7               QGGRRYMMIVD [GAA_Y438]             False
 8        SSDKVYAHQMD [MLH1_Y379_V384D]             False
 9            IVAREYYSEAD [CAMK2A_Y106]              True
10             ILGRTYYVNHE [NEDD4_Y627]             False
11             NRLNDYIFSFD [RARS1_Y516]              True
12           KVALPYKPFFF [POLE_Y100_YF]             False
13       QPGTDYKIYRY [FN1_Y1970_L1974R]             False
14     SLKAFYGEDAK [ALDH3A1_Y272_E270A]             False
15       RFLRGYEQDAY [HLA-A_Y137_R138E]             False
16            HKDNNYVSMWF [PAPOLG_Y432]              True
17        DQVEQCKKELE [LMNA_Y259_Y259C]              True

====

system_tested: EPHB1 (UniProt P54762)
Sequence (P54762 whole entry, looked up): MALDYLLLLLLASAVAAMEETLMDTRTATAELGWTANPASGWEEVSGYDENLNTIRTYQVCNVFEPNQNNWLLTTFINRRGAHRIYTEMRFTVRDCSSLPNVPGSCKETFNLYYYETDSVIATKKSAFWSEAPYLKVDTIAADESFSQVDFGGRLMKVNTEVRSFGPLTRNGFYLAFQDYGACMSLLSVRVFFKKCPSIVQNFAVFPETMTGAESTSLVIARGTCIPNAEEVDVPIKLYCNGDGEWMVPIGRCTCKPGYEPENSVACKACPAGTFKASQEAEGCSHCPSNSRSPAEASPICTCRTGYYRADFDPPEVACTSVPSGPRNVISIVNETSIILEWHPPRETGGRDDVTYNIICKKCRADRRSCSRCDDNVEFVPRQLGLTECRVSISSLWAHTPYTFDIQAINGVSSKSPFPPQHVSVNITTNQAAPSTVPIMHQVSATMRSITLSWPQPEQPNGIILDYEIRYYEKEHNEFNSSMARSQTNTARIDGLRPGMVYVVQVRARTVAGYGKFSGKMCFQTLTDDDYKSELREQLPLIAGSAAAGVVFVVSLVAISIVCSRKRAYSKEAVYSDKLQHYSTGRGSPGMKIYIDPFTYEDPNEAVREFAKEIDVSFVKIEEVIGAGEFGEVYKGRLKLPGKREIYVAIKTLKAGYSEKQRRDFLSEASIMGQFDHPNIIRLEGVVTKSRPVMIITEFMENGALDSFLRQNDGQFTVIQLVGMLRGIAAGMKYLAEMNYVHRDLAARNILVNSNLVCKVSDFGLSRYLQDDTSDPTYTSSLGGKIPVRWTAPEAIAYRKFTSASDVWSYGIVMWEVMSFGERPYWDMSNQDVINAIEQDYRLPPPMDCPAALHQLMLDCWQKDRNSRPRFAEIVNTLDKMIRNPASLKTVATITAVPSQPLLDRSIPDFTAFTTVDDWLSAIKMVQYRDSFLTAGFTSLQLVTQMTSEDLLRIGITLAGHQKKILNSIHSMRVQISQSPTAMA
assay_protocol: phosphorylation enrichment, bacterial display (enrichment ratio); higher = better substrate or ligand; peptides without Tyr show the background
In this section, each of the sequences is paired with its reported phosphorylation enrichment.
recorded_endpoint: phosphorylation enrichment

>>> print(df.to_string())
                              seq_string  result
 0             DDSSAYRSVDE [BCKDHA_Y345]   0.671
 1            RLLVVFPWTQR [HBB_Y36_Y36F]   0.574
 2         AKLVQYYMEHH [PTPN11_Y80_E76K]    2.46
 3                QGGRRYMMIVD [GAA_Y438]   0.487
 4        VGTTAYVAPEA [IRAK4_Y354_M355V]   0.558
 5       AIMSFYAALIN [RYR1_Y2426_D2431N]    1.14
 6      QKNVSYVSRVS [TASOR_Y1043_T1046R]   0.683
 7           TNYCLYLRSLE [MTM1_Y71_R69C]    1.93
 8               DENWFYTRAAS [RPS19_Y54]   0.547
 9         DSFSSYCNAVA [SLC20A2_Y436_YF]   0.642
10         YEDTLYTVLHR [UNC13D_Y61_A59T]    12.2
11        FGHTFYNQAIM [MCCC2_Y196_R193H]   0.404
12         ADCRYYTFPQM [GAMT_Y223_A224T]    4.67
13          HRGCLYLAIEY [TEK_Y899_Y897C]    1.01
14               QQLDEYQELLD [LMNA_Y359]   0.776
15         LGSWTYPKTVS [ROS1_Y144_T145P]   0.402
16      SESSFYKSLNL [NGEF_Y289_A286S_YF]   0.598
17           CCKNRYDKDKP [THAP1_Y14_G9C]    0.29
18           RFGRKYKKVRF [F8_Y442_I438F]   0.572
19               PLAVPYLDKPP [JMJD7_Y31]   0.355
20             MHDSNYVSKGS [PDGFRA_Y849]   0.388
21               KDFNKYVAYIE [KDM4B_Y31]   0.461
22          IEEGTYGVVFR [CDK11B_Y449_YF]    2.76
23          CEDMEYLESKQ [BTK_Y511_A508D]   0.652
24        ISRDVYSTDYY [NTRK2_Y702_M697I]    2.43
25        GQSKGYRPKLF [SIPA1L3_Y1376_YF]   0.319
26              GPKFGYDEIDN [ACOX1_Y232]    0.44
27      SFHCSYSEIKD [DCLRE1C_Y322_S320C]   0.599
28        QVMDGYPIPIG [MMP14_Y353_M355I]   0.596
29      RSSGSYGGGGQ [HNRNPA1_Y341_P340S]     1.5
30         AEYGLYRAMVR [VSX2_Y222_G223R]    2.89
31               SCTFTYLLGDR [ETHE1_Y38]   0.491
32       KSIDEYLKLVG [RASAL2_Y381_E379D]   0.378
33              IPKTWYSAEQF [CD207_Y217]    3.19
34     HNVPICEGFAL [ACTC1_Y168_Y168C_YF]   0.729
35          GIVEDYRPPFF [ACVRL1_Y421_YF]   0.497
36  AAVDNYCRHNF [HLA-DRB1_Y107_T106N_YF]   0.753
37              SSNLYYRWLTA [CNGA3_Y169]    1.52
38     SQETFYRVSNM [ABCD1_Y181_Q178E_YF]   0.412
39              MVIPNYSSRTE [UROC1_Y185]   0.477
40             TYGVVYRAKDK [CDK11B_Y453]    0.75
41             PPTYRYERGSR [INPPL1_Y663]   0.302
42      CTLNVYRQLHN [LUZP1_Y1036_S1034N]   0.753
43              RASSSYRETPS [SORBS1_Y79]   0.361
44             KKRSVYLKVLF [CC2D2A_Y683]   0.453
45                SNVEQYQAMVT [TPR_Y965]   0.443
46               PPLMLYNPTTY [EGFR_Y270]       1
